These entries and their values trace back to PubChem BioAssay AID463173.

Test system: Wild type
Experiment: S. aureus survival, RN4220 and DeltatarO strains – OD600, teichoic acid synthesis inhibitors, primary screen (AID 463173)
Settings: S. aureus RN4220 wild type/DeltatarO growth, OD600, 18 h, hits give low values, screened at 18.75 µg/mL (by protocol)
Screen size: about 52,000 compounds; about 1,700 (3.3%) were called active. What follows is part of a selection rich in actives, with near analogues and random picks from the rest.
Parameter Measured: survival (%)
Number in %, nothing else.

Some compounds with known survival results, for comparison:
>>> numeric_result("COc1cc(-c2noc(CSc3nc(-c4ccccc4)cc(=O)[nH]3)n2)cc(OC)c1OC")
59
>>> numeric_result("Cc1ccc(-n2c(SCC(=O)N3CCc4ccccc43)nc3c([nH]c4ccccc43)c2=O)cc1")
120

Prompt: Consider the compound shown here: CCOc1ccc(-c2nc(CSCC(=O)N3CCN(c4ccc(F)cc4)CC3)c(C)o2)cc1 What is its recorded survival?
Completion: 113

Prompt: Endpoint output: survival of COc1ccc(-n2c(SCC(=O)c3ccccc3)nc3c([nH]c4ccccc43)c2=O)cc1 . Value?
Completion: 88

Prompt: Item under review: CCOc1ccc(NC(=O)Cn2c(=O)n(Cc3ccc(C(=O)NCc4ccc5c(c4)OCO5)cc3)c(=O)c3ccccc32)cc1 . Reported survival?
Completion: 98

* * *

Test system: Wild type
Assay: S. aureus survival, RN4220 and DeltatarO strains – OD600, teichoic acid synthesis inhibitors, primary screen (AID 463173)
Conditions: S. aureus RN4220 wild type/DeltatarO growth, OD600, 18 h, hits give low values, screened at 18.75 µg/mL (by protocol)
The whole screen tested about 52,000 compounds, of which about 1,700 (3.3%) were called active. What follows is part of a selection rich in actives, with near analogues and random picks from the rest.
Lab note - cut at 80% for survival: criterion met if strictly below, criterion not met if not.

Completed entries (count: 2):
>>> category_label("O=C(CSc1nnc2[nH]c(=O)cc(-c3ccccc3)n12)Nc1ccc(F)cc1F")
"criterion not met"
>>> category_label("COc1ccccc1CNS(=O)(=O)c1ccc(-c2cc(C(F)(F)F)on2)s1")
"criterion met"

Lab note: next compound to report on.
Prompt: Is survival of COc1ccccc1N1CCN(C(=O)CN2C(=O)COc3ccc(S(=O)(=O)N4CCC(C)CC4)cc32)CC1 strictly below 80%?
Completion: criterion not met

* * *

System: Wild type
Assay: S. aureus survival, RN4220 and DeltatarO strains – OD600, teichoic acid synthesis inhibitors, primary screen (AID 463173)
Conditions: S. aureus RN4220 wild type/DeltatarO growth, OD600, 18 h, screened at 18.75 µg/mL (by protocol)
Out of some 52,000 compounds screened, about 1,700 (3.3%) were called active. Cut-off read from the data, not from the text of the source: active = survival mostly below about 52% (no sharp cut-off); inactive = mostly above about 56%. This is one part of a sample in which actives are shown more often than they occur.
Respond only with the outcome that fits, drawn from Y = active, N = inactive

Below are worked cases with known answers.
>>> category_label("CCCCNC(=O)c1cccc(-n2c(C)nc3cccnc32)c1")
"N"
>>> category_label("CCCCNC(=O)CN1CCN(c2ccc(NC(=O)c3ccc(OC)cc3)cc2C(=O)O)CC1")
"N"
>>> category_label("COc1ccc(-n2cc(C(=O)Oc3cc(C)cc(C)c3)c3ccccc3c2=O)cc1")
"N"
>>> category_label("COc1ccc(NC(=O)Cn2c(=O)oc3cc(S(=O)(=O)N4CCCC4)ccc32)cc1OC")
"N"
>>> category_label("Cc1ccc(NC(=O)CCc2nnc3n(C)c(=O)c4sccc4n23)cc1C")
"N"
>>> category_label("COc1ccc(CCNC(=O)C(=O)NCC(c2cccs2)S(=O)(=O)c2ccc(F)cc2)cc1 (stereo unspecified)")
"N"

Prompt: For COc1ccc(Cn2c(SCC(=O)N3CCN(c4ccc(F)cc4)CC3)nc3ccccc32)cc1 , what call appears in the results of this test?
Completion: N

Prompt: State the result this test recorded for CN(C)c1ccc(C(CNS(=O)(=O)c2ccc(Br)cc2)N2CCCC2)cc1 (stereo unspecified) .
Completion: N
